Cited source: patent US8106168B2

# Experimental Target: MMP-24 (Homo sapiens, UniProt Q9Y5R2)
# Sequence (Q9Y5R2 156-645): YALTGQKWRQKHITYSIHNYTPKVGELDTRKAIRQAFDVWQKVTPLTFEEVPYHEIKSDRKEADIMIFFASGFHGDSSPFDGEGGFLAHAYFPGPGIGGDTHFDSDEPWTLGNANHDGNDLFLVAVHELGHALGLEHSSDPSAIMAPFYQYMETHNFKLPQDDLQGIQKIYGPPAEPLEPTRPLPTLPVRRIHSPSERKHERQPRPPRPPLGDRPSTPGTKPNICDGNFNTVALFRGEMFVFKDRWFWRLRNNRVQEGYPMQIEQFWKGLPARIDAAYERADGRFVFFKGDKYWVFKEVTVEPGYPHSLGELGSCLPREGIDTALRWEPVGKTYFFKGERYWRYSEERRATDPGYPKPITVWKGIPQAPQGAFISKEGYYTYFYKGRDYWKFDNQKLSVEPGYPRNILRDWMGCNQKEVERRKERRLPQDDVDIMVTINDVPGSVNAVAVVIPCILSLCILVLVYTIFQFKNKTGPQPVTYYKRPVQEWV
# Assay Info: Cross-reactivity of Fabs with MMP-24 (Example 9)
# Type: biochemical
# Design: key: X: Do not inhibit MMP-16 or MMP-24 at [I] = 100 nM level; Y: partially inhibit at [I] = 100 nM level
# Condition Summary: Fab, 100 nM final inhibitor concentration; 5 nM MMP-24
# Protocol: For the studies summarized in Table 15, 1 μM of anti-MMP-14 Fab/IgG (100 nM final inhibitor concentration) were incubated with 5 nM of MMP-16 or 5 nM of MMP-24 for 30 minutes at 30° C., 10 μM of substrate was added, and the MMP-16 activity was measured.
Endpoint: MMP-24 (cross-reactivity, class symbol)

>>> meas_value("M0038-F08: human antibody (Fab, IgG) that binds and inhibits MMP-14; HC SEQ ID NO: 158, LC SEQ ID NO: 159 (antibody, V domains shown, Synthetically generated peptide) VH: EVQLLESGGGLVQPGGSLRLSCAASGFTFSRYKMWWVRQAPGKGLEWVSGIRPSGGLTRYADSVKGRFTISRDNSKNTLYLQMNSLRAEDTAVYYCARRGDYVGGFDYWGQGTLVTVSS VL: QDIQMTQSPGTLSLSPGERATLSCRASQSVSSSYLAWYQQKPGQAPRLLIYGASSRATGIPDRFSGSGSGTDFTLTISRLEPEDFAVYYCQHYGGSQAFGGGTKVEIK")
"X"
